Value source: patent US20200262868A1

target: T1, human NK1 Receptor (human, UniProt P25103 1-407); assay: radioligand competition, displacement of 5.0 nM [3H]-septide from CHO-hNK1 membranes
T1 construct: whole, on cells; calcium assays used intact CHO-hNK1 cells; also called hNK1R; hNK1
T1 sequence (P25103 whole entry): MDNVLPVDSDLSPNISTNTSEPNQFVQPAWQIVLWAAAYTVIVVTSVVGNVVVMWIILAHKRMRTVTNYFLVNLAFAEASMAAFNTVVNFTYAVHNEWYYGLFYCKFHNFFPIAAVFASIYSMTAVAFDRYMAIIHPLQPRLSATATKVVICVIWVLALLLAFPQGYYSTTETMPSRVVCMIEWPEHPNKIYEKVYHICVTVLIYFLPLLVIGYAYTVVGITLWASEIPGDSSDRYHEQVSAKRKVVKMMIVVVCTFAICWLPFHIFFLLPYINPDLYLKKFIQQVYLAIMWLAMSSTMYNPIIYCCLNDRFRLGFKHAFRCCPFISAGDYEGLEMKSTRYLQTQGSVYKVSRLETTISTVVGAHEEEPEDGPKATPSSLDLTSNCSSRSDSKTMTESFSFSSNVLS
Where no end group is shown, it is not given here. [ ]: non-standard residue; d: D form. NMeL = CN[C@@H](CC(C)C)C(=O)O; Nle = CCCC[C@H](N)C(=O)O
recorded metric: Ki (nM)

Past entries and their recorded results:
>>> endpoint_result("DRFVALX (HELM PEPTIDE1{D.R.F.V.[bAla].L.[Nle].[am]}$$$$V2.0; N-terminus assumed; SMILES CCCC[C@H](NC(=O)[C@H](CC(C)C)NC(=O)CCNC(=O)[C@@H](NC(=O)[C@H](Cc1ccccc1)NC(=O)[C@H](CCCNC(=N)N)NC(=O)[C@@H](N)CC(=O)O)C(C)C)C(N)=O, synthetic heptapeptide analog of neurokinin A, Fmoc solid-phase synthesis; also called Compound K; Cmpd K) [Heptapeptide analog K, Asp-Arg-Phe-Val-(β-Ala)-Leu-Nle-NH2]")
1200
>>> endpoint_result("DKFVALX (HELM PEPTIDE1{D.K.F.V.[bAla].L.[Nle].[am]}$$$$V2.0; N-terminus assumed; SMILES CCCC[C@H](NC(=O)[C@H](CC(C)C)NC(=O)CCNC(=O)[C@@H](NC(=O)[C@H](Cc1ccccc1)NC(=O)[C@H](CCCCN)NC(=O)[C@@H](N)CC(=O)O)C(C)C)C(N)=O, synthetic heptapeptide analog of neurokinin A, Fmoc solid-phase synthesis; also called Compound G; Cmpd G) [Heptapeptide analog G, Asp-Lys-Phe-Val-(β-Ala)-Leu-Nle-NH2]")
3090

[a] DKFVG[NMeL]M-NH2 (synthetic heptapeptide analog of neurokinin A, Fmoc solid-phase synthesis; also called Compound A; Cmpd A) [Heptapeptide analog A, Asp-Lys-Phe-Val-Gly-(NMe-Leu)-Met-NH2]
[b] DRFVG[NMeL][Nle]-NH2 (synthetic heptapeptide analog of neurokinin A, Fmoc solid-phase synthesis; also called Compound B; Cmpd B) [Heptapeptide analog B, Asp-Arg-Phe-Val-Gly-(NMe-Leu)-Nle-NH2]
input: Which entry shows the lesser value of Ki here, a or b ? API: response body contains the label of the selected item.
output: a
(a: 50.1 nM, b: 331 nM)
